# Test system: bovine SVF cells
# assay-method-text: retinoic acid induced inhibition of the differentiation of bovine SVF cells to adipocytes, Oil Red O staining
# Format: cell-based
# condition-parameters: 1 μM compound + 0.1 μM ATRA; bovine SVF cells; OD 530 nm; day 13
The following compounds are shown together with reported Oil Red O absorbance (OD minus blank), well2 values.
value-kind: Oil Red O absorbance (OD minus blank), well2

- cpd-smiles: "Cc1ccc(C2=CCC(C)(C)c3ccc(C#Cc4ccc(C(=O)O)cc4)cc32)cc1"
  readout-number: 0.3493
- cpd-smiles: "CC1(C)CC=C(c2cnc3ccccc3c2)c2cc(C(=O)Nc3ccc(C(=O)O)cc3)ccc21"
  readout-number: 0.4044
- cpd-smiles: "Cc1ccc(C2=CC(C)(C)Oc3c(Br)cc(C(=O)Nc4ccc(C(=O)O)cc4)cc32)cc1"
  readout-number: 0.6229
- cpd-smiles: "CN1c2cc3c(cc2N=C(c2ccc(C(=O)O)cc2)c2ccc4ccccc4c21)C(C)(C)CCC3(C)C"
  readout-number: 0.3318

---

# measured-target: RARα (Homo sapiens, UniProt P10276)
# Sequence (P10276 whole entry, species assumed): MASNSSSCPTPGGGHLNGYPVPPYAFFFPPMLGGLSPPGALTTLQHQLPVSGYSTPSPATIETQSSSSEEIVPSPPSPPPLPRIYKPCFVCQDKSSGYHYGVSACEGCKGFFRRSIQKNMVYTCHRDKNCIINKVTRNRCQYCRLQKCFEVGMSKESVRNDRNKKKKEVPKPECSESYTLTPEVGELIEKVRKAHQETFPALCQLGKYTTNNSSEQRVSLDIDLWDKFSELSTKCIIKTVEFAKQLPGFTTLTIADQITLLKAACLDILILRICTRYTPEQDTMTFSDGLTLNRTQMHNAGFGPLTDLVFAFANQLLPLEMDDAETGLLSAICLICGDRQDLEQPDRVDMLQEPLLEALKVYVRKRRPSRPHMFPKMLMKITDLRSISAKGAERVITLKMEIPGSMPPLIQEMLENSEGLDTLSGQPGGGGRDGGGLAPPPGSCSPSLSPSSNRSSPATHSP
# assay-method-text: luciferase based RA responsive reporter assay, RARα
# condition-parameters: antagonist
value-kind: IC50 (nM)

- compound: "Cc1ccc(C2=CC(C)(C)Oc3c(Br)cc(C(=O)Nc4ccc(C(=O)O)cc4)cc32)cc1 [Compound No. 4]"
  value-kind: "IC50"
  readout-number: 4

---

# measured-target: RARβ (Homo sapiens)
# Sequence (P10826 1-455): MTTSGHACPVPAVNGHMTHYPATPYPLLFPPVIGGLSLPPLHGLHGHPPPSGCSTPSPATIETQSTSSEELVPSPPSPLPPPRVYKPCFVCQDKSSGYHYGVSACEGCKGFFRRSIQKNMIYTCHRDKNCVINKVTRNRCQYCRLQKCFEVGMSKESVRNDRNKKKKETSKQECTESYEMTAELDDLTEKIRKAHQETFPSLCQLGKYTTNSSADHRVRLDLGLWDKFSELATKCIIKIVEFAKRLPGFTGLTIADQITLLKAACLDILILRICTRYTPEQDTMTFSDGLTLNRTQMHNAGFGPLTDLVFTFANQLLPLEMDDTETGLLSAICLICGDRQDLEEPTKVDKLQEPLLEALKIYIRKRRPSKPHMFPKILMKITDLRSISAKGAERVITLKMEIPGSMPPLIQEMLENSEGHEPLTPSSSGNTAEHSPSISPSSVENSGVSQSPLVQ
# assay-method-text: luciferase based RA responsive reporter assay, RARβ
# condition-parameters: antagonist
pIC50: −log10 of the molar value.
value-kind: pIC50

- cpd-smiles: "Cc1ccc(C2=CC(C)(C)Oc3c(Br)cc(C(=O)Nc4ccc(C(=O)O)cc4)cc32)cc1"
  readout-number: 5.53
